Cited source for all entries: patent US10363239B2

# TARGET DESC: FLNA pentapeptide of SEQ ID NO: 1 (Bn-VAKGL) (Homo sapiens)
# TEST DETAILS: FITC-NLX-based FLNA screening assay (inhibition of FITC-naloxone binding to Bn-VAKGL on streptavidin plates)
# CONDITION DESCRIPTION: FLNA-binding compound 1 μM; 10 nM FITC-NLX; read-out: Percent Binding Inhibition
Give measured inhibition at 1 µM for each item. Keep answers brief.
# output: bare number, implied unit %

Query: Reported inhibition at 1 µM for FLNA pentapeptide of SEQ ID NO: 1 (Bn-VAKGL) (Homo sapiens), given COc1ccc(S(=O)(=O)N2CCOC23CCNCC3)cc1 [Compound C0027] ?
Result: 63.8

Query: Reported inhibition at 1 µM for FLNA pentapeptide of SEQ ID NO: 1 (Bn-VAKGL) (Homo sapiens), given O=C(OCc1ccccc1)c1ccc(S(=O)(=O)N2CCC3(CC2)OCCN3S(=O)(=O)c2ccc(C(=O)OCc3ccccc3)cc2)cc1 [Compound C0042] ?
Result: 56.1

Query: Reported inhibition at 1 µM for FLNA pentapeptide of SEQ ID NO: 1 (Bn-VAKGL) (Homo sapiens), given COc1c2c(cc3c1OCO3)CCN(CC(O)COC1CC(C)CCC1C(C)C)C2 (stereo not drawn) [Compound A0061] ?
Result: 42.8

* * *

Give measured inhibition at 1 µM for each item. Keep answers brief.
# TARGET DESC: UniProtKB P21333
# TEST DETAILS: FITC-NLX-based FLNA screening assay (inhibition of FITC-naloxone binding to Bn-VAKGL on streptavidin plates)
# CONDITION DESCRIPTION: read-out: Percent Binding Inhibition, FLNA-binding compound 1 μM; 10 nM FITC-NLX
# output: bare number, implied unit %

Query: Find the recorded inhibition at 1 µM belonging to COc1ccccc1CC(=O)CC1c2c(cc3c(c2OC)OCO3)CC[N+]1(C)C (stereo not drawn) [Compound 5009] and report it.
Result: 54.3

Query: Find the recorded inhibition at 1 µM belonging to O=C1CN(Cc2ccccc2)C2(CCNCC2)N1 [Compound C0115M] and report it.
Result: 59.9

Query: Find the recorded inhibition at 1 µM belonging to O=S(=O)(c1ccc(Br)cc1)N1CCC2(CC1)OCCN2S(=O)(=O)c1ccc(Br)cc1 [Compound C0025] and report it.
Result: 45.1

* * *

# TARGET DESC: FLNA pentapeptide of SEQ ID NO: 1 (Bn-VAKGL) (Homo sapiens)
# TEST DETAILS: FITC-NLX-based FLNA screening assay (inhibition of FITC-naloxone binding to Bn-VAKGL on streptavidin plates)
# CONDITION DESCRIPTION: read-out: Percent Binding Inhibition, FLNA-binding compound 0.1 μM; 10 nM FITC-NLX
OBSERVED PROPERTY: inhibition at 0.1 µM (%)
# output: bare number, implied unit %

Query: Find the recorded inhibition at 0.1 µM belonging to COc1c2c(cc3c1C(CC(=O)CCc1ccc(F)cc1)[N+](C)(C)CC3)OCO2 (stereo not shown) [Compound B0018] and report it.
Result: 43.7

Query: Find the recorded inhibition at 0.1 µM belonging to COc1c2c(cc3c1C(CC(=O)Cc1ccc(C#N)cc1)[N+](C)(C)CC3)OCO2 (stereo not shown) [Compound B0012] and report it.
Result: 46.9

Query: Find the recorded inhibition at 0.1 µM belonging to COc1ccc(NC(=O)N2CCC3(CC2)OCCN3S(=O)(=O)c2ccc(OC)cc2)cc1 [Compound C0041] and report it.
Result: 47

Query: Find the recorded inhibition at 0.1 µM belonging to COc1c2c(cc3c1C(CC(=O)CCc1ccc(Cl)cc1)[N+](C)(C)CC3)OCO2 (stereo not shown) [Compound B0017] and report it.
Result: 36.6

Query: Find the recorded inhibition at 0.1 µM belonging to COc1cc(OC)cc(C(=O)CC2c3c(cc4c(c3OC)OCO4)CC[N+]2(C)C)c1 (stereo not shown) [Compound B0035] and report it.
Result: 44.7

Query: Find the recorded inhibition at 0.1 µM belonging to O=S(=O)(c1csc2ccccc12)N1CCC2(CC1)OCCN2S(=O)(=O)c1csc2ccccc12 [Compound C0150M] and report it.
Result: 51.8

Query: Find the recorded inhibition at 0.1 µM belonging to CC(=O)c1ccc(S(=O)(=O)N2C(Cc3c[nH]cn3)C(=O)NC23CCNCC3)cc1 (stereo not shown) [Compound C0119M] and report it.
Result: 55.5

Query: Find the recorded inhibition at 0.1 µM belonging to CC1CCC(C(C)C)C(OCC(O)CN2CCCCC2)C1 (stereo not shown) [Compound A0005] and report it.
Result: 38.2

Query: Find the recorded inhibition at 0.1 µM belonging to COc1cccc(CCC(=O)CC2c3c(cc4c(c3OC)OCO4)CC[N+]2(C)C)c1 (stereo not shown) [Compound B0034] and report it.
Result: 54.2

Query: Find the recorded inhibition at 0.1 µM belonging to O=C1CNC2(CCNCC2)N1Cc1ccccc1 [Compound C0114M] and report it.
Result: 63.2

Query: Find the recorded inhibition at 0.1 µM belonging to Cc1ccccc1S(=O)(=O)N1CCC2(CC1)OCCN2S(=O)(=O)c1ccccc1C [Compound C0015] and report it.
Result: 40.6

Query: Find the recorded inhibition at 0.1 µM belonging to COc1c2c(cc3c1C(CC(=O)c1ccc(N4CCOCC4)cc1)[N+](C)(C)CC3)OCO2 (stereo not shown) [Compound B0004] and report it.
Result: 50

Query: Find the recorded inhibition at 0.1 µM belonging to COc1ccc(S(=O)(=O)N2CCC3(CC2)NCCC(=O)N3)cc1 [Compound C0142M] and report it.
Result: 39.4

* * *

# Tested on: mu opiate receptor (MOR)
# TEST DETAILS: MOR agonist activity using [35S]GTPγS binding assay in striatal membranes
# Assay type: biochemical
# CONDITION DESCRIPTION: Series C-2; 1 μM compound + β-FNA, relative to DAMGO + BFNA
OBSERVED PROPERTY: % DAMGO + BFNA (%)
# output: bare number, implied unit %

Query: Find the recorded % DAMGO + BFNA belonging to COc1ccc(S(=O)(=O)N2CCC3(NCCO3)C3CCCCC32)cc1 (stereo not shown) [Compound C0144M-2] and report it.
Result: 137.9

Query: Find the recorded % DAMGO + BFNA belonging to CC(=O)c1ccc(S(=O)(=O)N2CCC3(CC2)OCCN3S(=O)(=O)c2ccc(C(C)=O)cc2)cc1 [Compound C0011] and report it.
Result: 36.5

Query: Find the recorded % DAMGO + BFNA belonging to CCOC(=O)CN1CCC2(CC1)OCCN2S(=O)(=O)c1ccc(C(C)=O)cc1 [Compound C0099M] and report it.
Result: 241.5

Query: Find the recorded % DAMGO + BFNA belonging to CC(=O)c1ccc(S(=O)(=O)N2CCOC23CCN(CC(=O)O)CC3)cc1 [Compound C0100M] and report it.
Result: 411.8

* * *

# System: mu opiate receptor (MOR)
# TEST DETAILS: MOR agonist activity using [35S]GTPγS binding assay in striatal membranes
# Format: biochemical
# CONDITION DESCRIPTION: 1 μM compound + BFNA relative to DAMGO + BFNA
OBSERVED PROPERTY: % DAMGO + BFNA (%)
# output: bare number, implied unit %

Query: Find the recorded % DAMGO + BFNA belonging to CC1CCC(C(C)C)C(OCC(O)Cn2cccc2)C1 (stereo not drawn) and report it.
Result: 144.8

Query: Find the recorded % DAMGO + BFNA belonging to CC1CN(CC(O)COc2cccc(C(F)(F)F)c2)CC(C)O1 (stereo not drawn) and report it.
Result: 286.3

Query: Find the recorded % DAMGO + BFNA belonging to CC1CCC(C(C)C)C(OCC(O)CN2CCCC2)C1 (stereo not drawn) and report it.
Result: 83.8

Query: Find the recorded % DAMGO + BFNA belonging to Cc1ccc(C(C)C)c(OCC(O)CN2CC(C)OC(C)C2)c1 (stereo not drawn) and report it.
Result: 443.7

Query: Find the recorded % DAMGO + BFNA belonging to CC1CCC(C(C)C)C(OCC(O)Cn2ccc3ccccc32)C1 (stereo not drawn) and report it.
Result: 274.2

Query: Find the recorded % DAMGO + BFNA belonging to CC(=O)c1ccc(OCC(O)CN2CC(C)OC(C)C2)cc1 (stereo not drawn) and report it.
Result: 182.3

Query: Find the recorded % DAMGO + BFNA belonging to CC1CCC(C(C)C)C(OCC(O)CN2CCN(CCN3CCOCC3)CC2)C1 (stereo not drawn) and report it.
Result: 177.4

Query: Find the recorded % DAMGO + BFNA belonging to CC1CCC(C(C)C)C(OCC(O)CN2CCOc3ccccc32)C1 (stereo not drawn) and report it.
Result: 171.6

Query: Find the recorded % DAMGO + BFNA belonging to CC1CCC(C(C)C)C(OCC(O)CN2CCc3ccccc32)C1 (stereo not drawn) and report it.
Result: 112.5
